system: Septoria tritici; experiment: B-9. Septoria tritici in vitro cell test; assay type: cell-based; conditions: Zymoseptoria tritici, 168 h; 20 ppm of active ingredient; 7 days incubation; liquid culture, absorbance; read-out: efficacy (inhibition of fungal growth)

{"compound": "Cc1ccc(C(F)(F)CNC(=O)c2c(Oc3cccc(Br)c3F)nnc3c2CCCC3)c(C)c1", "experimental-target": "Septoria tritici", "inhibition at 20 ppm": "90 to 100%"}
{"compound": "Cc1ccc(C(F)(F)CNC(=O)c2c(Oc3cccc(C(F)F)c3)nnc3c2CCCC3)c(C)c1", "experimental-target": "Septoria tritici", "inhibition at 20 ppm": "90 to 100%"}
{"compound": "O=C(NC[C@H](F)c1ccc(Cl)cc1Cl)c1c(Oc2cccc(C(F)(F)F)c2)cnc2ccoc12 (racemic)", "experimental-target": "Septoria tritici", "inhibition at 20 ppm": "70 to 79%"}
{"compound": "O=C(NCC(F)(F)c1ccc(Br)cc1Cl)c1c(Oc2cccc(Cl)c2F)nnc2c1CCCC2", "experimental-target": "Septoria tritici", "inhibition at 20 ppm": "90 to 100%"}
{"compound": "O=C(NC[C@H](F)c1ccc(Cl)cc1Cl)c1c(Oc2cccc(C(F)(F)F)c2)nnc2ccccc12 (racemic)", "experimental-target": "Septoria tritici", "inhibition at 20 ppm": "80 to 89%"}
{"compound": "Cc1ccc(C(F)(F)CNC(=O)c2c(Oc3cccc(Cl)c3)nnc3c2CCCC3)c(C)c1", "experimental-target": "Septoria tritici", "inhibition at 20 ppm": "90 to 100%"}
{"compound": "Cc1ccc(C(F)(F)CNC(=O)c2c(Oc3cccc(C(F)(F)F)c3)nnc3cc(C4CC4)ccc23)c(C)c1", "experimental-target": "Septoria tritici", "inhibition at 20 ppm": "80 to 89%"}
{"compound": "Cc1ccc(C(F)(F)CNC(=O)c2c(Oc3cccc(C(F)(F)F)c3)nnc3c2CCC3)c(C)c1", "experimental-target": "Septoria tritici", "inhibition at 20 ppm": "90 to 100%"}

====

assay: Measurement of Log P values by HPLC on reversed phase columns (EEC directive 79/831 Annex V.A8); type: physicochemical; details: reversed phase HPLC column, method [a]: LC-UV, acidic range, 0.1% formic acid in water and acetonitrile as eluent
quantity: chromatographic logP

{"molecule": "C[C@H](NC(=O)c1c(Oc2cccc(C(F)(F)F)c2)nnc2ccccc12)c1cccc(C(F)(F)F)c1 (racemic)", "quantity": "chromatographic logP", "recorded-value": 4.03}
{"molecule": "COc1ccc2c(c1)[C@@H](NC(=O)c1c(Oc3cccc(C(F)(F)F)c3)nnc3ccccc13)[C@@H](OC)CC2 (mixture of isomers)", "quantity": "chromatographic logP", "recorded-value": 3.78}
{"molecule": "N#Cc1ccc(C(F)(F)CNC(=O)c2c(Oc3cccc(C(F)(F)F)c3)nnc3ccccc23)c(Cl)c1", "quantity": "chromatographic logP", "recorded-value": 3.94}
{"molecule": "O=C(N[C@H]1CCCc2ccc(Br)cc21)c1c(Oc2cccc(C(F)(F)F)c2)nnc2ccccc12 (racemic)", "quantity": "chromatographic logP", "recorded-value": 4.54}
{"molecule": "Cc1cc(Cl)ccc1[C@@H](F)CNC(=O)c1c(Oc2cccc(C(F)(F)F)c2)cnc2ccccc12 (racemic)", "quantity": "chromatographic logP", "recorded-value": 4.47}
{"molecule": "O=C(NCC(F)(F)c1ccc(Br)cc1Cl)c1c(Oc2cccc(C(F)(F)F)c2)nnc2c1CCC2", "quantity": "chromatographic logP", "recorded-value": 4.17}
{"molecule": "Cc1ccc([C@@H](F)CNC(=O)c2c(Oc3cccc(C(F)(F)F)c3)cnc3ccccc23)cc1C (racemic)", "quantity": "chromatographic logP", "recorded-value": 4.33}
{"molecule": "O=C(NCC(F)(F)c1ccc(Cl)cc1)c1c(Oc2cncc(C(F)(F)F)c2)nnc2ccccc12", "quantity": "chromatographic logP", "recorded-value": 3.61}
{"molecule": "Cc1ccc(C(F)(F)CNC(=O)c2c(Oc3cccc(Br)c3)nnc3ccccc23)c(C)c1", "quantity": "chromatographic logP", "recorded-value": 4.38}
{"molecule": "N#Cc1cccc(Oc2nnc3ccccc3c2C(=O)NCC(F)(F)c2ccc(Cl)cc2)c1", "quantity": "chromatographic logP", "recorded-value": 3.33}
{"molecule": "Cc1cccc2c1OCC[C@@H]2NC(=O)c1c(Oc2cccc(C(F)(F)F)c2)nnc2ccccc12 (racemic)", "quantity": "chromatographic logP", "recorded-value": 4.07}
{"molecule": "COc1ccc(CCN(C(C)=O)C(=O)c2c(Oc3cccc(C(F)(F)F)c3)nnc3ccccc23)cc1", "quantity": "chromatographic logP", "recorded-value": 4.32}
{"molecule": "Cc1ccc(C(F)(F)CNC(=O)c2c(Oc3cccc(C(F)(F)F)c3)nnc3c2CCC3(C)C)c(C)c1", "quantity": "chromatographic logP", "recorded-value": 4.85}
{"molecule": "Cc1ccc([C@@H](F)CNC(=O)c2c(Oc3cccc(C(F)(F)F)c3)nnc3ccccc23)cc1C (racemic)", "quantity": "chromatographic logP", "recorded-value": 4.19}
{"molecule": "O=C(NC[C@H](F)c1ccc(Cl)cc1Cl)c1c(Oc2cccc(C3CC3)c2F)nnc2ccccc12 (racemic)", "quantity": "chromatographic logP", "recorded-value": 4.57}

Each recorded value in this set is attributed to patent US20230192617A1.
